biological target: GTPase HRas (Homo sapiens); assay: Ras wt fluorescent GTP loading blockade – biochemical, wildtype, multiplex bead flow cytometry, dose response (AID 1335); conditions: bead-based flow cytometry, Bodipy-GTP binding to GST-Ras; at 100 µM (top of the series) unless noted
Consider the following compounds; for each one, report its GTP binding, percent of control.
Give bare numbers, in %.

Some entries whose results are on file:
SMILES RECORD	MEASURED ENDPOINT	UNIT OF MEASUREMENT	MEASURED
COc1ccc(/C=C2\SC(=S)NC2=O)cc1OS(=O)(=O)c1ccc(NC(C)=O)cc1	GTP binding, percent of control	%	80.1
CC(C)N(C)NC(=S)Nc1ccccc1	GTP binding, percent of control	%	64.3
Cc1ccc(-c2c(C(=O)O)c(C(=O)O)c3n2CCC3)cc1	GTP binding, percent of control	%	78.1
O=C(O)c1ccc(CNCc2cccc(Cl)c2)s1	GTP binding, percent of control	%	85.1
Cc1ccc2c(c1)c1nnc(SCC(=O)Nc3cccc(Cl)c3C)nc1n2CC(=O)O	GTP binding, percent of control	%	80.1

Query compound follows.
Inquiry: Form entry - test system: GTPase HRas (Homo sapiens); read-out: GTP binding, percent of control; compound: CCNC(=S)N=Nc1c(O)[nH]c2ccc([N+](=O)[O-])cc12
Reply text: 72.3

---

target: GTPase HRas (Homo sapiens); assay: Ras wt fluorescent GTP loading blockade – biochemical, wildtype, multiplex bead flow cytometry, dose response (AID 1335); settings: bead-based flow cytometry, Bodipy-GTP binding to GST-Ras; at 100 µM (top of the series) unless noted
Consider the following compounds; for each one, report its GTP binding, percent of control.
Answers are plain numbers, in %.

COMPOUND	MEASURED
CCCCn1c(O)c(/C=C/C=C/C=Nc2ccccc2)sc1=S	68.3

State the recorded GTP binding, percent of control for every item in the following list.
1. COC(=O)c1cccnc1SCCc1ccccc1
2. CCOc1nnc(C)c2c(C)n(-c3cccc(Cl)c3)nc12
3. Cc1ccc(-n2nc3c(=S)[nH]nc(C)c3c2C)cc1
4. COc1cc2c(C)nc3c(c(C)nn3-c3ccccc3)c2cc1OC
5. CC(Sc1nnc(NC2CCCCC2)s1)C(=O)Nc1ccc2c(c1)C(=O)c1ccccc1C2=O (stereo unspecified)
6. O=c1c2ccccc2nc2c3ccccc3c(NCCO)nn12

Reply text:
1: 125; 2: 168; 3: 66.3; 4: 71.7; 5: 61.4; 6: 65

State the recorded GTP binding, percent of control for every item in the following list.
1. CCOC(=O)N1CCN(Cc2cn[nH]c2-c2cc3ccccc3o2)CC1
2. CCOc1cc(/C=C2/SC(=S)NC2=O)ccc1OC(=O)c1ccco1
3. Oc1ccc(NC(=S)N=Nc2c(O)[nH]c3ccccc23)cc1
4. CCOc1cc(/C=N/NC(=O)c2cccs2)cc([N+](=O)[O-])c1O

Reply text:
[82.1, 83.7, 62.5, 57.7]

---

test system: anti-desmoglein-3 scFv antibody binding to human DSG3; test: blockers of pathogenic pemphigus antibody–desmoglein-3 binding – biochemical, validation compound set, bead-based, flow cytometry, pilot screen (AID 588368); conditions: Protein G beads, DSG3-Fc, scFv-GFP binding, at 10 µM, stronger effect = lower value;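 further: signal is the median channel fluorescence of bead-bound GFP antibody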
MEASURED ENDPOINT: binding (% of control) (%)
Answers are plain numbers, in %.

Some entries whose results are on file:
MOLECULE	MEASURED
Cn1cc(/C=C/C(=O)c2ccccc2)c2ccccc21	101
COc1cc(C(=O)Nc2cccc(-c3nnc(-c4ccco4)o3)c2)ccc1OC(C)=O	106
Cc1ccnc(NS(=O)(=O)c2ccc(N)cc2)n1	94
Cn1cc(CN2CCC(C(=O)N3CCCCC3)CC2)c(-c2ccccc2F)n1	104
CN(C)CCOC(c1ccccc1)c1ccccc1	98

State the recorded binding (% of control) for every item in the following list.
1. Cc1cnc(N)c2c(=O)oc3ccccc3c12
2. CC1(C)Cc2nc3sc4c(=O)n(CC(N)=O)cnc4c3cc2CO1
3. Cc1ccc2nc(NC3=NC(CC(=O)O)C(=O)N3)nc(C)c2c1 (configuration not stated)
4. O=C1[C@@H]2[C@H](Cc3ccc(O)cc3)N[C@]3(C(=O)Nc4ccccc43)[C@@H]2C(=O)N1c1ccc(F)cc1
5. COc1cc(COc2ccc3c(C)c(Cc4ccccc4)c(=O)oc3c2)cc(OC)c1OC
6. CC[N+]1(C)CC2CCC(C)(C1)C2(C)C (configuration not stated)
7. COc1ccc(-c2coc3c(CN4CCOCC4)c(O)ccc3c2=O)cc1
8. CC(C)(C)N1NC2(CCCCC2)NC1=S

Reply text:
1: 97.1; 2: 97; 3: 96.1; 4: 92.2; 5: 97.2; 6: 98; 7: 103; 8: 104

---

assay: TOR pathway LAP4-GFP level changes – S. cerevisiae, multiplex flow cytometry, primary screen (AID 1873); details: S. cerevisiae LAP4-GFP expression, 3 h, at 10 µM, stronger effect = higher value
Inconclusive results are not listed.
MEASURED ENDPOINT: GFP response vs DMSO (%)
Answers are plain numbers, in %.

COMPOUND	GFP response vs DMSO (%)
CC(=O)Nc1ccc2[nH]c(C)c(CC=C(Cl)Cl)c(=O)c2c1	87.3
OCCC1CN(Cc2ccccc2-c2ccco2)CCN1C1CCCC1 (stereo not drawn)	110
CCNC(=O)C(Cc1ccccc1)NC(=O)OCc1ccccc1 (stereo not drawn)	117
NC(=O)c1cccnc1	79.8
CC(C)CC(NC(=O)CNC(=O)C1O[C@@H]2OC(C)(C)O[C@@H]2[C@H]2OC(C)(C)O[C@@H]12)C(=O)O (stereo partly drawn)	99.9
CCc1cc2c(=O)c(-c3ccc4c(c3)OCCO4)coc2c(CN2CCCCC2C)c1O (stereo not drawn)	103

State the recorded GFP response vs DMSO for every item in the following list.
1. Cc1ccc(C2CC(=O)C(C=NCCN3CCN(C(=S)Nc4ccccc4)CC3)=C(O)C2)cc1 (stereo not drawn)
2. CC1(C)CC(C(CC(=O)O)c2ccccc2)CCO1 (stereo not drawn)
3. NS(=O)(=O)c1ccc(CCNC(=O)C2CCCN2C(=O)OCc2ccccc2)cc1 (stereo not drawn)
4. Cc1ccc(S(=O)(=O)N[C@@H](C)C(=O)N2CCC(C(=O)N3CCC[C@H]3C(=O)O)CC2)cc1
5. Cc1ccc(Nc2ncccc2C(=O)O)cc1C
6. CN/C(=C/[N+](=O)[O-])NCCSCc1ccc(CN(C)C)o1
7. CCOCC(=O)Nc1nc2ccccc2s1
8. c1ccc(-c2ccccn2)nc1

Reply text:
1. 110
2. 109
3. 77.6
4. 79.2
5. 80.3
6. 83.6
7. 80.9
8. 101

State the recorded GFP response vs DMSO for every item in the following list.
1. CC1(C)Cc2ccccc2-c2n[nH]c(=S)n21
2. CC(C)Oc1ccc2c(=O)c(-c3ccccc3)coc2c1
3. CS(=O)(=O)NCc1ccc(C(=O)NCc2ccccc2)cc1
4. OCCN(Cc1nc(-c2ccc3c(c2)OCO3)no1)Cc1cccs1
5. COc1cc(C(=O)CCN2CCC(c3ccccc3)C2)cc(OC)c1OC (stereo not drawn)
6. CN1CCN(CCCN2c3ccccc3Sc3ccc(Cl)cc32)CC1
7. CN(C)CCN(Cc1ccccc1)c1ccccn1

Reply text:
[102, 83.1, 127, 109, 95.9, 113, 85.3]

State the recorded GFP response vs DMSO for every item in the following list.
1. Cc1ccc(C(=O)O)cc1NC(=O)c1cccs1
2. CC[N+](C)(C)c1cccc(O)c1
3. O=c1[nH]c(=O)n([C@H]2C[C@H](O)[C@@H](CO)O2)cc1C(F)(F)F
4. Cc1ccc(S(=O)(=O)NC(=O)NN2CCCCCC2)cc1
5. COC1CCN(C(=O)c2ccc(OC3CCN(Cc4ccccn4)CC3)cc2)CC1

Reply text:
[99.4, 97.3, 94, 96.6, 114]

---

tested on: Ras-related protein Rab-7a (dog), GTP binding; experiment: blockers of fluorescent GTP binding to Rab7 – biochemical, wildtype, multiplex bead flow cytometry, dose response (AID 1336); settings: bead-based flow cytometry; series mostly up to 100 µM
Entries with a potency or affinity are not part of this list. Calls of active or inactive are those of the source. The rule behind the calls is not given here.
MEASURED ENDPOINT: GTP binding, % of control

Some entries whose results are on file:
COMPOUND	GTP binding, % of control
O=C(Nc1ccc2nc(-c3cccs3)[nH]c2c1)c1cccs1	inactive
Cc1cc(=O)[nH]c2c(N=Nc3ccc(O)cc3)c(N)nn12	inactive
COc1cc(/C=C(\C#N)c2nc3ccc(C)cc3[nH]2)cc([N+](=O)[O-])c1O	inactive
CC(C)(C)C(=O)C#Cc1ccccc1	inactive
Cn1c(SCCOc2ccccc2F)nc2ccccc2c1=O	inactive
CC(=O)Nc1cccc(C#CC(=O)c2ccc([N+](=O)[O-])cc2)c1	inactive
CC(C)(C)OC(=O)N[C@@H](Cc1ccccc1)c1nnc(S(=O)(=O)Cc2cccc(F)c2)o1	inactive
Cc1cccc(OCCSc2nc3ccccc3n2CC(=O)O)c1C	inactive
Cn1c(SCC(=O)Nc2cccc(Br)c2)nnc1-c1cc2ccccc2o1	inactive
CCC(C)(C)NC(=O)c1ccc2c(c1)N(CC(=O)OC)C(=O)C(C)(C)O2	inactive

Query compound follows.
Inquiry: Returns the measured GTP binding, % of control for the input compound. Input: CC1=NC(=O)C(N=Nc2ccccc2C(=O)O)N1c1ccccc1 (stereo unspecified)
Reply text: inactive
